system: NCI-H460 lung; assay: NCI tumour cell line growth inhibition, 48 h

{"compound": "O=C(O)C1C2C=CC(C2)C1C(=O)O (centres undefined)", "assay.target": "NCI-H460 lung", "TGI": "> 100 µM"}
{"compound": "O=C(NNC(=S)Nc1ccc(Br)cc1)c1cc(-c2ccccc2)nc2ccccc12", "assay.target": "NCI-H460 lung", "TGI": "43.5 µM"}
{"compound": "O=C(Nc1ccc(Sc2ccc(N=Nc3c(O)c(S(=O)(=O)O)cc4cc(S(=O)(=O)O)ccc34)cc2)cc1)c1ccc(N=Nc2c(O)ccc3c(S(=O)(=O)O)cc(S(=O)(=O)O)cc23)cc1", "assay.target": "NCI-H460 lung", "TGI": "> 100 µM"}
{"compound": "CCOC(=O)CSc1nnc(CSc2nc(-c3ccccc3)c(-c3ccccc3)[nH]2)n1-c1ccccc1", "assay.target": "NCI-H460 lung", "TGI": "> 100 µM"}
{"compound": "O=C(O)C1CCC(=O)N1S(=O)(=O)c1ccccc1 (centres undefined)", "assay.target": "NCI-H460 lung", "TGI": "> 100 µM"}
{"compound": "COc1ccc(-c2nc(Nc3ccc(-c4nc5ccccc5[nH]4)cc3)nc(N3CCOCC3)n2)cc1", "assay.target": "NCI-H460 lung", "TGI": "6.51 µM"}
{"compound": "CCN(CC)CCOc1ccc(/C=C2\\C[C@H]3[C@H]4CC=C5C[C@@H](O)CC[C@]5(C)[C@H]4CC[C@]3(C)[C@H]2O)cc1OC", "assay.target": "NCI-H460 lung", "TGI": "> 50 µM"}
{"compound": "C[N+](C)(C)/N=C/c1ccc(O)c(O)c1", "assay.target": "NCI-H460 lung", "TGI": "> 100 µM"}
{"compound": "C=C1CC[C@@H]2[C@](C)(COC(C)=O)[C@H](OC(C)=O)CC[C@@]2(C)[C@@H]1CC(Nc1ccc(S(=O)(=O)Nc2cc(C)on2)cc1)C1=CCOC1=O (some centres undefined)", "assay.target": "NCI-H460 lung", "TGI": "5.7 µM"}

----------
test system: XF 498 CNS; assay: NCI tumour cell line growth inhibition, 48 h

{"compound": "COC(=O)NC(=Nc1ccc(Oc2ccccc2)cc1NC=O)NC(=O)OC", "assay.target": "XF 498 CNS", "TGI": "6.75 µM"}
{"compound": "c1ccc(N=c2nc(N3CCOCC3)ss2)cc1", "assay.target": "XF 498 CNS", "TGI": "32.1 µM"}
{"compound": "COC(=O)NN1C(C)=C(C(=O)OC)C2(C#N)C(C(=O)OC)=C(C)N(NC(=O)OC)C12N (stereo unspecified)", "assay.target": "XF 498 CNS", "TGI": "> 100 µM"}
{"compound": "CC1=NN2C(c3ccc(C)cc3)=CSC2=NC(C)(C)C1", "assay.target": "XF 498 CNS", "TGI": "> 100 µM"}
{"compound": "COC(=O)N/N=C(\\C(=O)Nc1cccc([N+](=O)[O-])c1)c1nc2ccc([N+](=O)[O-])cc2[nH]c1=O", "assay.target": "XF 498 CNS", "TGI": "> 100 µM"}
{"compound": "CCCC(N)C(=O)c1ccccc1 (stereo unspecified)", "assay.target": "XF 498 CNS", "TGI": "> 100 µM"}
{"compound": "C/C=C(/CCC1NCCC2c3ccccc3NC12)[Si](C)(C)C (stereo unspecified)", "assay.target": "XF 498 CNS", "TGI": "12.1 µM"}
{"compound": "Cn1c(=O)c2ccc(-c3ccc(Br)cc3)nc2n(C)c1=O", "assay.target": "XF 498 CNS", "TGI": "> 100 µM"}
{"compound": "O=C(CC1(O)C(=O)Nc2ccccc21)c1ccc(F)cc1 (stereo unspecified)", "assay.target": "XF 498 CNS", "TGI": "> 100 µM"}
{"compound": "COC(=O)C(CC(C)=O)CS(=O)(=O)CC(=O)C(=O)Nc1cccc([N+](=O)[O-])c1 (stereo unspecified)", "assay.target": "XF 498 CNS", "TGI": "> 100 µM"}
{"compound": "CSc1ccc(OCC2OC2O)cc1 (stereo unspecified)", "assay.target": "XF 498 CNS", "TGI": "78.7 µM"}

----------
system: HCT-15 colon; assay: NCI tumour cell line growth inhibition, 48 h
Listing: TGI of selected molecules

{"molecule": "N#Cc1cc([N+](=O)[O-])ccc1NC(=O)C(F)(F)F", "TGI": "> 58.5 µM"}
{"molecule": "O=C(O)C1CCC(=O)N1S(=O)(=O)c1ccccc1 (stereo unspecified)", "TGI": "> 100 µM"}
{"molecule": "O=C(O)CC1NC(/C(=C/c2ccccc2O)NC(=O)c2ccccc2)OC1=O (stereo unspecified)", "TGI": "> 100 µM"}
{"molecule": "Cc1[nH]n(C(=N)N)c(=O)c1CCO", "TGI": "> 100 µM"}
{"molecule": "CC(Oc1ccc(OCC2CCCCC2)cc1)C(=O)NCCO (stereo unspecified)", "TGI": "> 100 µM"}
{"molecule": "CC(C)(C)OC(=O)NCCC(=O)NC1(c2cc3ccccc3s2)CCCCC1", "TGI": "30.6 µM"}
{"molecule": "O=C1C=CC(=Nc2ccccc2)c2ccccc21", "TGI": "24.5 µM"}
{"molecule": "Cc1ccc(NC(=O)CC/C(CC(=O)C(C)(C)C)=N/NC(=O)C[N+](C)(C)C)cc1C", "TGI": "> 100 µM"}
{"molecule": "COc1cccc(C2ON=C(c3ccccc3)N2C23CC4CC(CC(C4)C2)C3)c1 (stereo unspecified)", "TGI": "> 10 µM"}
{"molecule": "CCOC(=O)CSc1nnc(CSc2nc(-c3ccccc3)c(-c3ccccc3)[nH]2)n1-c1ccccc1", "TGI": "> 100 µM"}
{"molecule": "CCN1C(=O)/C(=C2\\SC(c3ccccc3)(c3ccccc3)c3ccccc32)SC1=S", "TGI": "> 100 µM"}
{"molecule": "CC(C)OP(=O)(OC(C)C)c1ccc2c(c1)OCCOCCOCCOCCO2", "TGI": "> 100 µM"}
{"molecule": "Cc1cc(S(=O)(=O)NC2=NC(c3ccccc3)c3cc(Cl)ccc3N2)c(S)cc1Cl (stereo unspecified)", "TGI": "> 100 µM"}
{"molecule": "Cc1cccc2nc3cccc(C(=O)NCCNCCNCCNC(=O)c4cccc5nc6cccc(C)c6nc45)c3nc12", "TGI": "> 100 µM"}
{"molecule": "COC(=O)NN1C(C)=C(C(=O)OC)C2(C#N)C(C(=O)OC)=C(C)N(NC(=O)OC)C12N (stereo unspecified)", "TGI": "> 100 µM"}
{"molecule": "O=C(NNc1ccc(F)cc1)C1CCC(CNS(=O)(=O)c2ccc(Cl)c(Cl)c2)CC1 (stereo unspecified)", "TGI": "> 50 µM"}
{"molecule": "O=C(CC1(O)C(=O)Nc2ccccc21)c1ccc(F)cc1 (stereo unspecified)", "TGI": "> 100 µM"}
{"molecule": "CCCCCCCNC(P(=O)(O)O)P(=O)(O)O", "TGI": "> 100 µM"}
{"molecule": "C=C(C)C1CC=C(C)CC1 (stereo unspecified)", "TGI": "1620 µM"}
{"molecule": "O=C(Nc1ccc(Sc2ccc(N=Nc3c(O)c(S(=O)(=O)O)cc4cc(S(=O)(=O)O)ccc34)cc2)cc1)c1ccc(N=Nc2c(O)ccc3c(S(=O)(=O)O)cc(S(=O)(=O)O)cc23)cc1", "TGI": "> 100 µM"}
{"molecule": "CCCC(N)C(=O)c1ccccc1 (stereo unspecified)", "TGI": "> 100 µM"}

----------
In this section, each of the compounds is paired with its reported TGI.
test system: CCRF-CEM leukemia; assay: NCI tumour cell line growth inhibition, 48 h

{"compound": "COc1cc2c(cc1OC)CN1CCCc3cc(OC)c(OC)cc3C1C2 (stereo not given)", "censoring.operator": ">", "TGI (µM)": 100}
{"compound": "O=C(N/C(=C\\c1ccc(/C=C(\\NC(=O)c2ccccc2)c2nc3cc(Cl)ccc3[nH]2)cc1)c1nc2cc(Cl)ccc2[nH]1)c1ccccc1", "censoring.operator": ">", "TGI (µM)": 100}
{"compound": "Cc1ccc(C2N=C(N)NC3=C2CCOc2c3ccc3ccccc23)cc1 (stereo not given)", "censoring.operator": "=", "TGI (µM)": 3.71}
{"compound": "C/C=C(/CCC1NCCC2c3ccccc3NC12)[Si](C)(C)C (stereo not given)", "censoring.operator": "=", "TGI (µM)": 57}
{"compound": "COC(CC1(/C=C/O[Si](C(C)C)(C(C)C)C(C)C)C(=O)N(COCC[Si](C)(C)C)c2ccccc21)OC (stereo not given)", "censoring.operator": ">", "TGI (µM)": 100}
{"compound": "NC(=S)N/N=C/c1ccc(N)cn1", "censoring.operator": ">", "TGI (µM)": 10}
{"compound": "N#CCCN(CCC#N)c1ccc(C(N=Nc2ccccc2)=Nc2ccc(Cl)cc2)cc1", "censoring.operator": ">", "TGI (µM)": 100}
{"compound": "Cc1ccc(NCC(=O)N2CC(=O)Nc3ccccc32)cc1", "censoring.operator": ">", "TGI (µM)": 100}
{"compound": "COc1cc2oc(-c3ccc(O)cc3O)c(CC=C(C)C)c(=O)c2c(O)c1/C=C/C(C)C", "censoring.operator": "=", "TGI (µM)": 5.07}
{"compound": "CN1CC[C@]2(c3cccc(O)c3)CC(=O)/C(=C/c3ccccc3)[C@H]1C2", "censoring.operator": "=", "TGI (µM)": 9.36}
